Entries annotated with measured IC50
- Tested on: TF1 JAK2 V617F STAT5 reporter
- test.summary: Cellular TF1 STAT5 assay (luciferase reporter), JAK2 V617F
- Format: cell-based
- condition.info: TF1 JAK2 V617F, read-out: Cell PD TF1 V617F STAT5 (IC50)

[
  {
    "molecule.smiles": "CNC(=O)c1nnc(NC(=O)C2CC2)cc1Nc1cccc(-c2ccc(C(=O)N(C)Cc3cccnc3C#N)nc2)c1OC",
    "target.desc": "TF1 JAK2 V617F STAT5 reporter",
    "IC50": "500 to 5000 nM"
  },
  {
    "molecule.smiles": "CNC(=O)c1nnc(NC(=O)C2CC2)cc1Nc1cccc(-c2cnn(C3CN(Cc4cccc(C)n4)C3)c2)c1OC",
    "target.desc": "TF1 JAK2 V617F STAT5 reporter",
    "IC50": "50 to 500 nM"
  },
  {
    "molecule.smiles": "CNC(=O)c1nnc(NC(=O)C2CC2)cc1Nc1cccc(-c2ccc(C(=O)N(C)CC(F)F)nc2)c1OC",
    "target.desc": "TF1 JAK2 V617F STAT5 reporter",
    "IC50": "5000 to 100000 nM"
  }
]

# get_value(readout='IC50', item= CNC(=O)c1nnc(NC(=O)C2CC2)cc1Nc1cccc(-c2cn(C3CN(Cc4ccccn4)C3)nn2)c1OC ) 500 to 5000 nM
